Data origin: BindingDB's records for doi:10.1111/j.1471-4159.1985.tb08803.x

assay-target: Norepinephrine transporter (Rattus norvegicus, UniProt Q9JIA2)
Counter-ions that a name gives are not always drawn.
The threshold is 7 nM. Values of Ki beneath it are tagged Criterion met; values meeting or exceeding it are tagged Criterion not met.

Please determine if COc1ccc2c(c1)CN(C)CC2c1ccc(Cl)c(Cl)c1 (configuration not stated) is below 7 nM in terms of Ki.
Criterion met

Now the compound Fc1ccc(C(OCCN2CCN(C/C=C/c3ccccc3)CC2)c2ccc(F)cc2)cc1
Criterion not met

Request: CN1Cc2c(N)cccc2[C@H](c2ccccc2)C1
Criterion met

And then CNCCCC1(c2ccccc2)SC(C)(C)c2ccccc21 (configuration not stated) [Talsupram] , what is it?
Criterion met

# repeat for CC(NC(C)(C)C)C(=O)c1cccc(Cl)c1 (configuration not stated) [BUPROPION HYDROCHLORIDE]
Criterion not met

Another: C(=C\c1ccccc1)/CN1CCN(CCOC(c2ccccc2)c2ccccc2)CC1 [CAS_67469-75-4]
Criterion not met

What would you report for CN(C)C[C@@H]1C2CCC(CC2)[C@@H]1c1ccc(Cl)c(Cl)c1 ?
Criterion met

---

Give measured Ki for each item. Keep answers brief.
assay-target: Alpha-1A adrenergic receptor (Rattus norvegicus)
Sequence (P43140 whole entry): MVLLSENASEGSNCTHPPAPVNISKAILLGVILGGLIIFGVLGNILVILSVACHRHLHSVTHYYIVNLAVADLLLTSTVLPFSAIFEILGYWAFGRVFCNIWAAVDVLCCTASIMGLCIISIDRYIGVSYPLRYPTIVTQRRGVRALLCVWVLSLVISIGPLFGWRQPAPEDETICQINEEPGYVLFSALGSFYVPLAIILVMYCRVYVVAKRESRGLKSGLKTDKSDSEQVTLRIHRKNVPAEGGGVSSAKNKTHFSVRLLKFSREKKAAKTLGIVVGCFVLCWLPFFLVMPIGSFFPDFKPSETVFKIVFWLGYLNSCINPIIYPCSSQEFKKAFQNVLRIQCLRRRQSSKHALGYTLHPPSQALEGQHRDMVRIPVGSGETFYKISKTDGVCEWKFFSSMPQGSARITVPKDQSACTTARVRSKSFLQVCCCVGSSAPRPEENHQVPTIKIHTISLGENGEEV
Structures can show the parent of a compound that is named as a salt.

Which Ki value belongs to CC(NC(C)(C)C)C(=O)c1cccc(Cl)c1 (stereo not drawn) [BUPROPION HYDROCHLORIDE] ?
> 10 µM

Repeat for the following molecule: CN(C)C[C@@H]1C2CCC(CC2)[C@@H]1c1ccc(Cl)c(Cl)c1
> 10 µM

Now the molecule CNCCCC1(c2ccccc2)SC(C)(C)c2ccccc21 (stereo not drawn)
> 10 µM
